Reference for the values: ChEMBL document CHEMBL3044672

Test system: UO-31
Measurement Protocol: Cytotoxicity against Homo sapiens (human) UO31 cells after 48 hr by sulforhodamine B assay
Format: functional
Condition Notes: UO-31, 48 h
Labels assigned by GI50 range: lower range: < 2000 nM; middle range: ≥ 2000 nM and < 3000 nM; upper range: ≥ 3000 nM

query: Which GI50 band matches ClCc1ccccc1Cn1cnc2c(Cl)ncnc21 ?
result: middle range

query: Which GI50 band matches ClCc1cccc(Cn2cnc3nc(Cl)nc(Cl)c32)c1 ?
result: upper range

query: Which GI50 band matches ClCc1ccc(Cn2cnc3nc(Cl)nc(Cl)c32)cc1 ?
result: lower range

query: Which GI50 band matches ClCc1ccc(Cn2cnc3ncnc(Cl)c32)cc1 ?
result: upper range

----------
Test system: MOLT-4
Measurement Protocol: Cytotoxicity against Homo sapiens (human) MOLT4 cells after 48 hr by sulforhodamine B assay
Assay type: functional
Condition Notes: MOLT-4, 48 h
Metric Name: TGI

INSERT INTO assay_data (smiles_record, metric_name, assay_value) VALUES
  ('ClCc1ccccc1Cn1cnc2ncnc(Cl)c21', 'TGI', '4.26 µM'),
  ('Nc1nc(Cl)c2ncn(Cc3cccc(CCl)c3)c2n1', 'TGI', '> 100 µM'),
  ('ClCc1cccc(Cn2cnc3ncnc(Cl)c32)c1', 'TGI', '29.5 µM'),
  ('ClCc1ccc(Cn2cnc3nc(Cl)nc(Cl)c32)cc1', 'TGI', '5.49 µM'),
  ('ClCc1ccc(Cn2cnc3c(Cl)ncnc32)cc1', 'TGI', '> 100 µM');

For each of the items listed, what is its TGI?
1. ClCc1ccccc1Cn1cnc2c(Cl)ncnc21
2. ClCc1cccc(Cn2cnc3nc(Cl)nc(Cl)c32)c1
3. ClCc1cccc(Cn2cnc3c(Cl)ncnc32)c1

result:
["5.24 µM", "2.29 µM", "37.1 µM"]

----------
Tested on: HOP-92
Measurement Protocol: Cytotoxicity against Homo sapiens (human) HOP92 cells after 48 hr by sulforhodamine B assay
Assay type: functional
Condition Notes: HOP-92, 48 h
Binarize GI50 at 1 µM; below is 1 (yes), at or above is 0 (no).

Some solved entries appear below for comparison.
INSERT INTO results (smiles_record, label_class) VALUES
  ('Nc1nc(Cl)c2ncn(Cc3cccc(CCl)c3)c2n1', '1 (yes)'),
  ('ClCc1ccccc1Cn1cnc2c(Cl)nc(Cl)nc21', '1 (yes)'),
  ('ClCc1ccc(Cn2cnc3ncnc(Cl)c32)cc1', '0 (no)'),
  ('ClCc1ccccc1Cn1cnc2nc(Cl)nc(Cl)c21', '0 (no)'),
  ('ClCc1ccccc1Cn1cnc2c(Cl)ncnc21', '0 (no)');

query: Is 1 µM strictly greater than the compound's reported GI50? compound: ClCc1cccc(Cn2cnc3nc(Cl)nc(Cl)c32)c1
result: 0 (no)

----------
System: HOP-62
Measurement Protocol: Cytotoxicity against Homo sapiens (human) HOP62 cells after 48 hr by sulforhodamine B assay
Type: functional
Condition Notes: HOP-62, 48 h
I'd be grateful if you could share measured TGI for these entries.
One number for each entry, in µM.

INSERT INTO assay_data (smiles_record, tested_system, metric_name, scale_unit, assay_value) VALUES
  ('ClCc1ccc(Cn2cnc3ncnc(Cl)c32)cc1', 'HOP-62', 'TGI', 'µM', 3.16),
  ('ClCc1cccc(Cn2cnc3c(Cl)nc(Cl)nc32)c1', 'HOP-62', 'TGI', 'µM', 4.36),
  ('Nc1nc(Cl)c2ncn(Cc3ccc(CCl)cc3)c2n1', 'HOP-62', 'TGI', 'µM', 27.5);

For each of the items listed, what is its TGI?
1. ClCc1ccc(Cn2cnc3nc(Cl)nc(Cl)c32)cc1
2. ClCc1cccc(Cn2cnc3ncnc(Cl)c32)c1
3. Nc1nc(Cl)c2ncn(Cc3ccccc3CCl)c2n1
4. Nc1nc(Cl)c2ncn(Cc3cccc(CCl)c3)c2n1

result:
[3.89, 3.98, 61.7, 20.4]

For each of the items listed, what is its TGI?
1. ClCc1ccccc1Cn1cnc2c(Cl)ncnc21
2. ClCc1ccccc1Cn1cnc2nc(Cl)nc(Cl)c21
3. ClCc1ccccc1Cn1cnc2ncnc(Cl)c21
4. ClCc1ccc(Cn2cnc3c(Cl)ncnc32)cc1
5. ClCc1ccccc1Cn1cnc2c(Cl)nc(Cl)nc21

result:
6.02
5.49
28.8
6.76
3.63

For each of the items listed, what is its TGI?
1. ClCc1cccc(Cn2cnc3c(Cl)ncnc32)c1
2. ClCc1ccc(Cn2cnc3c(Cl)nc(Cl)nc32)cc1
3. ClCc1cccc(Cn2cnc3nc(Cl)nc(Cl)c32)c1

result:
1: 5.12; 2: 5.13; 3: 3.63

----------
Tested on: HCT-116
Measurement Protocol: Cytotoxicity against Homo sapiens (human) HCT116 cells after 48 hr by sulforhodamine B assay
Type: functional
Condition Notes: HCT-116, 48 h
Metric Name: GI50 (µM)
Numbers only, in µM.

INSERT INTO measurements (smiles_record, assay_value) VALUES
  ('ClCc1ccc(Cn2cnc3nc(Cl)nc(Cl)c32)cc1', 0.12),
  ('ClCc1cccc(Cn2cnc3c(Cl)ncnc32)c1', 1.47),
  ('ClCc1cccc(Cn2cnc3c(Cl)nc(Cl)nc32)c1', 1.62);

For each of the items listed, what is its GI50?
1. ClCc1ccccc1Cn1cnc2c(Cl)ncnc21
2. ClCc1cccc(Cn2cnc3ncnc(Cl)c32)c1
3. ClCc1ccc(Cn2cnc3c(Cl)nc(Cl)nc32)cc1
4. ClCc1ccc(Cn2cnc3c(Cl)ncnc32)cc1
5. ClCc1ccccc1Cn1cnc2c(Cl)nc(Cl)nc21
6. ClCc1cccc(Cn2cnc3nc(Cl)nc(Cl)c32)c1
7. ClCc1ccccc1Cn1cnc2nc(Cl)nc(Cl)c21

result:
1.9
1.77
1.7
1.12
0.19
0.75
1.86

For each of the items listed, what is its GI50?
1. ClCc1ccccc1Cn1cnc2ncnc(Cl)c21
2. Nc1nc(Cl)c2ncn(Cc3cccc(CCl)c3)c2n1

result:
1. 1.51
2. 1.99

----------
Test system: IGROV-1
Measurement Protocol: Cytotoxicity against Homo sapiens (human) IGROV1 cells after 48 hr by sulforhodamine B assay
Type: functional
Condition Notes: IGROV-1, 48 h
Binarize GI50 at 3 µM; below is condition met, at or above is condition not met.

INSERT INTO assay_data (smiles_record, label_class) VALUES
  ('ClCc1ccccc1Cn1cnc2c(Cl)nc(Cl)nc21', 'condition met'),
  ('ClCc1ccc(Cn2cnc3nc(Cl)nc(Cl)c32)cc1', 'condition met'),
  ('ClCc1ccc(Cn2cnc3ncnc(Cl)c32)cc1', 'condition not met'),
  ('ClCc1cccc(Cn2cnc3nc(Cl)nc(Cl)c32)c1', 'condition not met'),
  ('ClCc1ccccc1Cn1cnc2c(Cl)ncnc21', 'condition not met'),
  ('ClCc1ccc(Cn2cnc3c(Cl)ncnc32)cc1', 'condition not met');

query: Is 3 µM strictly greater than the molecule's reported GI50? molecule: ClCc1cccc(Cn2cnc3c(Cl)ncnc32)c1
result: condition not met

query: Is 3 µM strictly greater than the molecule's reported GI50? molecule: ClCc1ccccc1Cn1cnc2nc(Cl)nc(Cl)c21
result: condition met

query: Is 3 µM strictly greater than the molecule's reported GI50? molecule: ClCc1ccc(Cn2cnc3c(Cl)nc(Cl)nc32)cc1
result: condition not met

query: Is 3 µM strictly greater than the molecule's reported GI50? molecule: Nc1nc(Cl)c2ncn(Cc3cccc(CCl)c3)c2n1
result: condition not met

query: Is 3 µM strictly greater than the molecule's reported GI50? molecule: ClCc1cccc(Cn2cnc3ncnc(Cl)c32)c1
result: condition not met

query: Is 3 µM strictly greater than the molecule's reported GI50? molecule: ClCc1cccc(Cn2cnc3c(Cl)nc(Cl)nc32)c1
result: condition met

query: Is 3 µM strictly greater than the molecule's reported GI50? molecule: ClCc1ccccc1Cn1cnc2ncnc(Cl)c21
result: condition not met

----------
I'd be grateful if you could share measured CC50 for these entries.
Test system: HCT-116
Measurement Protocol: Cytotoxicity against Homo sapiens (human) HCT116 cells after 48 hr by sulforhodamine B assay
Assay type: functional
Condition Notes: HCT-116, 48 h, read-out: LC50 (the source's name)
One number for each entry, in µM.

Examples from the recorded data:
INSERT INTO results (smiles_record, metric_name, scale_unit, assay_value) VALUES
  ('ClCc1ccc(Cn2cnc3c(Cl)ncnc32)cc1', 'CC50', 'µM', 25.1),
  ('Nc1nc(Cl)c2ncn(Cc3cccc(CCl)c3)c2n1', 'CC50', 'µM', 75.9),
  ('ClCc1cccc(Cn2cnc3ncnc(Cl)c32)c1', 'CC50', 'µM', 9.54),
  ('ClCc1ccccc1Cn1cnc2c(Cl)ncnc21', 'CC50', 'µM', 7.08),
  ('Nc1nc(Cl)c2ncn(Cc3ccc(CCl)cc3)c2n1', 'CC50', 'µM', 56.2);

For each of the items listed, what is its CC50?
1. ClCc1ccccc1Cn1cnc2ncnc(Cl)c21
2. ClCc1cccc(Cn2cnc3c(Cl)nc(Cl)nc32)c1

result:
1: 40.7; 2: 5.88
